These entries and their values trace back to patent US12180193B2.

Biological target: BRAF G466V (Homo sapiens, UniProt P15056, G466V)
Construct: expressed in transfected cells
Sequence (P15056 whole entry G466V): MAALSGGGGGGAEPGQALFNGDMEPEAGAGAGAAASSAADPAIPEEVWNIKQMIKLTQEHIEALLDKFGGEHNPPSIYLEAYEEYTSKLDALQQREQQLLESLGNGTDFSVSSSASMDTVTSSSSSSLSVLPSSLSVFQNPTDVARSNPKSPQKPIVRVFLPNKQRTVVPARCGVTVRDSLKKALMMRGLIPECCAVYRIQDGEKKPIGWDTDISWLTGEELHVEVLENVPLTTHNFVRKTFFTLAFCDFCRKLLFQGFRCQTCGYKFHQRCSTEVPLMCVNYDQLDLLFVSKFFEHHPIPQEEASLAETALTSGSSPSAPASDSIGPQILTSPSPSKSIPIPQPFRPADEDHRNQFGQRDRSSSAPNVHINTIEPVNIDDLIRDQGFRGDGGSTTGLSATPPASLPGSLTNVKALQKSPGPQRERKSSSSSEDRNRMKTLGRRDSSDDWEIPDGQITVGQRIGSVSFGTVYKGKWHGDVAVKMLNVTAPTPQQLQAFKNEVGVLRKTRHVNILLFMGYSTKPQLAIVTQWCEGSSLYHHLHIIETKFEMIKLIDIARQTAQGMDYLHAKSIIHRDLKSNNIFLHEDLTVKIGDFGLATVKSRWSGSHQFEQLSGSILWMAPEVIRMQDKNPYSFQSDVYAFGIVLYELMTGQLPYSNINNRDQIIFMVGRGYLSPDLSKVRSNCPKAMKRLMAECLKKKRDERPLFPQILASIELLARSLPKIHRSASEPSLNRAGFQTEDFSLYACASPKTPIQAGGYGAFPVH
Assay: Cellular assay of target protein degradation, T-Rex 293 cells stably transfected with HA-BRAF G466V (HA immunofluorescence, high content imaging)
Format: cell-based
Conditions: maximum degradation observed, T-Rex 293 HA-BRAF G466V
Measurement name: Dmax

Some solved entries appear below for comparison.
O=C1CCC(N2Cc3cc(C4CCN(CC5CCN(c6ncc(-c7cnc8[nH]cc(C(=O)c9c(F)ccc(NS(=O)(=O)N%10CC[C@@H](F)C%10)c9F)c8c7)cn6)CC5)CC4)ccc3C2=O)C(=O)N1 (stereo partly drawn)    > 70%
O=C1CC[C@H](N2Cc3cc(CC[C@H](O)CN4CC5(C4)CN(c4ccc(-c6cnc7[nH]cc(C(=O)c8c(F)ccc(NS(=O)(=O)N9CC[C@@H](F)C9)c8F)c7c6)cc4)C5)ccc3C2=O)C(=O)N1    > 70%

Identify Dmax associated with the molecule COc1cc(N2CC3(CN(CC4CCN(c5ncc(-c6cnc7[nH]cc(C(=O)c8c(F)ccc(NS(=O)(=O)N9CC[C@@H](F)C9)c8F)c7c6)cn5)CC4)C3)C2)cc2c1C(=O)N(C1CCC(=O)NC1=O)C2 (stereo partly drawn)
> 70%

Identify Dmax associated with the molecule O=C1CCC(N2Cc3cc(N4CC5(CN(CCOc6ccc(-c7cnc8[nH]cc(C(=O)c9c(F)ccc(NS(=O)(=O)N%10CC[C@@H](F)C%10)c9F)c8c7)cn6)C5)C4)ccc3C2=O)C(=O)N1 (stereo partly drawn)
> 70%

Identify Dmax associated with the molecule CNc1cc(-c2cnc3[nH]cc(C(=O)c4c(F)ccc(NS(=O)(=O)N5CC[C@@H](F)C5)c4F)c3c2)ccc1N1CCC(CN2CCC(c3ccc4c(c3)CN(C3CCC(=O)NC3=O)C4=O)CC2)CC1 (stereo partly drawn)
> 70%

Identify Dmax associated with the molecule `O=C1CC[C@H](N2Cc3cc(C[C@H](O)CN4CC5(C4)CN(c4ccc(-c6cnc7[nH]cc(C(=O)c8c(F)ccc(NS(=O)(=O)N9CC[C@@H](F)C9)c8F)c7c6)cc4)C5)ccc3C2=O)C(=O)N1`
> 70%

Identify Dmax associated with the molecule O=C1CCC(N2Cc3cc(N4CCC(CN5CC(Cc6ncc(-c7cnc8[nH]cc(C(=O)c9c(F)ccc(NS(=O)(=O)N%10CC[C@@H](F)C%10)c9F)c8c7)cn6)C5)CC4)ccc3C2=O)C(=O)N1 (stereo partly drawn)
35 to 70%

Identify Dmax associated with the molecule O=C1CCC(c2ccc(N3CC4(CN(CC5CCN(c6ccc(-c7cnc8[nH]cc(C(=O)c9c(F)ccc(NS(=O)(=O)N%10CC[C@@H](F)C%10)c9F)c8c7)cc6)CC5)C4)C3)cc2)C(=O)N1 (stereo partly drawn)
35 to 70%

Identify Dmax associated with the molecule O=C1CCC(N2Cc3cc(OCCCCN4CCN(c5ccc(-c6cnc7[nH]cc(C(=O)c8c(F)ccc(NS(=O)(=O)N9CCC(F)(F)C9)c8F)c7c6)cc5)CC4)ccc3C2=O)C(=O)N1 (stereo not drawn)
35 to 70%

Identify Dmax associated with the molecule C[C@H]1CCCN1S(=O)(=O)Nc1ccc(F)c(C(=O)c2c[nH]c3ncc(-c4ccc(N5CCC(CN6CCC(c7ccc8c(c7)CN(C7CCC(=O)NC7=O)C8=O)CC6)CC5)cc4)cc23)c1F (stereo partly drawn)
35 to 70%

Identify Dmax associated with the molecule `CN(CCO)S(=O)(=O)Nc1ccc(F)c(C(=O)c2c[nH]c3ncc(-c4ccc(N5CCC(CN6CCC(c7ccc8c(c7)CN([C@H]7CCC(=O)NC7=O)C8=O)CC6)CC5)cc4)cc23)c1F`
35 to 70%

Identify Dmax associated with the molecule `O=C1CC[C@@H](N2Cc3cc(CC[C@H](O)CN4CC5(C4)CN(c4ccc(-c6cnc7[nH]cc(C(=O)c8c(F)ccc(NS(=O)(=O)N9CC[C@@H](F)C9)c8F)c7c6)cc4)C5)ccc3C2=O)C(=O)N1`
> 70%

Identify Dmax associated with the molecule `COc1c(NS(=O)(=O)N2CC[C@@H](F)C2)ccc(F)c1C(=O)c1c[nH]c2ncc(-c3ccc(N4CCC(CN5CCC(c6ccc7c(c6)CN([C@H]6CCC(=O)NC6=O)C7=O)CC5)CC4)cc3)cc12`
35 to 70%

Identify Dmax associated with the molecule O=C1CCC(N2Cc3cc(N4CC(CN5CCC(Cc6ccc(-c7cnc8[nH]cc(C(=O)c9c(F)ccc(NS(=O)(=O)N%10CC[C@@H](F)C%10)c9F)c8c7)cc6)CC5)C4)ccc3C2=O)C(=O)N1 (stereo partly drawn)
> 70%

Identify Dmax associated with the molecule O=C1CCC(N2Cc3cc(N4CCN(CCCCc5ccc(-c6cnc7[nH]cc(C(=O)c8c(F)ccc(NS(=O)(=O)N9CC[C@@H](F)C9)c8F)c7c6)cc5)CC4)ccc3C2=O)C(=O)N1 (stereo partly drawn)
> 70%

Identify Dmax associated with the molecule `C[C@@H]1C[C@H](CN2CCC(c3ccc4c(c3)CN([C@H]3CCC(=O)NC3=O)C4=O)CC2)CCN1c1ccc(-c2cnc3[nH]cc(C(=O)c4c(F)ccc(NS(=O)(=O)N5CC[C@@H](F)C5)c4F)c3c2)cc1`
> 70%

Identify Dmax associated with the molecule `O=C1CC[C@H](N2Cc3cc(C4CN(CC5CCN(c6ccc(-c7cnc8[nH]cc(C(=O)c9c(F)ccc(NS(=O)(=O)N%10CC[C@@H](F)C%10)c9F)c8c7)cc6)CC5)C4)ccc3C2=O)C(=O)N1`
35 to 70%

Identify Dmax associated with the molecule `O=C1CC[C@H](NC(=O)c2ccc(N3CC4(CN(CC5CCN(c6ccc(-c7cnc8[nH]cc(C(=O)c9c(F)ccc(NS(=O)(=O)N%10CC[C@@H](F)C%10)c9F)c8c7)cc6)CC5)C4)C3)cc2F)C(=O)N1`
35 to 70%
